Target: human NaV 1.8 (Homo sapiens)
Assay: E-VIPR assay detecting and measuring NaV inhibition properties
Assay type: cell-based
Conditions: HEK cells expressing truncated human NaV 1.8; no human serum; read-out: IC50 in the E-VIPR Assay
Text: Sodium ion channels are voltage-dependent proteins that can be activated by inducing membrane voltage changes by applying electric fields. The electrical stimulation instrument and methods of use, referred to as E-VIPR, are described in International Publication No. WO 2002/008748 A3 and C.-J. Huang et al. Characterization of voltage-gated sodium channel blockers by electrical stimulation and fluorescence detection of membrane potential, 24 Nature Biotech. […]
experimental_readout: IC50

{"compound": "C[C@H]1[C@@H](c2ccc(F)c(F)c2OC(F)F)[C@H](C(=O)Nc2ccnc(N3CCN(C)CC3=O)c2)O[C@@]1(C)C(F)(F)F [Compound 516]", "experimental_readout": "IC50", "assay_value": "< 10 nM"}
{"compound": "COc1c([C@H]2[C@H](C(=O)Nc3ccnc(C(O)C(F)F)c3)O[C@@](C)(C(F)(F)F)[C@H]2C)ccc(F)c1F (single isomer, unassigned) [Compound 254]", "experimental_readout": "IC50", "assay_value": "< 10 nM"}
{"compound": "COc1c([C@H]2[C@H](C(=O)Nc3ccnc(C(CO)N(C)C)c3)O[C@@](C)(C(F)(F)F)[C@H]2C)ccc(F)c1F (single isomer, unassigned) [Compound 230]", "experimental_readout": "IC50", "assay_value": "< 10 nM"}
{"compound": "COc1c([C@H]2[C@H](C(=O)Nc3ccnc(OC4CCN(C)C4=O)c3)O[C@@](C)(C(F)(F)F)[C@H]2C)ccc(F)c1F (single isomer, unassigned) [Compound 198]", "experimental_readout": "IC50", "assay_value": "10 to 100 nM"}

input: Form entry - test system: human NaV 1.8 (Homo sapiens); read-out: IC50; compound: COc1c([C@H]2[C@H](C(=O)Nc3cc(C(O)CN(C)C)ncc3F)O[C@@](C)(C(F)(F)F)[C@H]2C)ccc(F)c1F (single isomer, unassigned) [Compound 370]
output: < 10 nM

input: Form entry - test system: human NaV 1.8 (Homo sapiens); read-out: IC50; compound: COc1c([C@H]2[C@H](C(=O)NC3CCOCC3)O[C@@](C)(C(F)(F)F)[C@H]2C)ccc(F)c1F [Compound 269]
output: ≥ 1000 nM

----------
target: human NaV 1.8 (Homo sapiens, UniProt Q9Y5Y9); assay: E-VIPR assay detecting and measuring NaV inhibition properties; type: cell-based; conditions: HEK cells expressing truncated human NaV 1.8; no human serum; read-out: IC50 in the E-VIPR Assay
Sequence (Q9Y5Y9 126-399 limits assumed): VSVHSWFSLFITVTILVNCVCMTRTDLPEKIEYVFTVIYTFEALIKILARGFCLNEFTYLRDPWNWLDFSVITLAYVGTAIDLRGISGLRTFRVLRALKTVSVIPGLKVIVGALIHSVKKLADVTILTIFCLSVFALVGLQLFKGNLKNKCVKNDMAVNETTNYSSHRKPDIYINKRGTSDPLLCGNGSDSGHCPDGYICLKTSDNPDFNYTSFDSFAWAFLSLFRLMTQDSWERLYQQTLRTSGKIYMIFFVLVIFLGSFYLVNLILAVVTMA
Sequence (Q9Y5Y9 660-890 limits assumed): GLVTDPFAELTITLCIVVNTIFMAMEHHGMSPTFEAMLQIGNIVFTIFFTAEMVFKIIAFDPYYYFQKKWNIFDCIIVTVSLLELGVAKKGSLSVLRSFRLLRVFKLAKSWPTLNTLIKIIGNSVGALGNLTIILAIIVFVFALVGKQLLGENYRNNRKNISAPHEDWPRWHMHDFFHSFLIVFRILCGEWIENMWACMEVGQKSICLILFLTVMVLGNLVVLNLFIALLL
Sequence (Q9Y5Y9 1148-1722 limits assumed): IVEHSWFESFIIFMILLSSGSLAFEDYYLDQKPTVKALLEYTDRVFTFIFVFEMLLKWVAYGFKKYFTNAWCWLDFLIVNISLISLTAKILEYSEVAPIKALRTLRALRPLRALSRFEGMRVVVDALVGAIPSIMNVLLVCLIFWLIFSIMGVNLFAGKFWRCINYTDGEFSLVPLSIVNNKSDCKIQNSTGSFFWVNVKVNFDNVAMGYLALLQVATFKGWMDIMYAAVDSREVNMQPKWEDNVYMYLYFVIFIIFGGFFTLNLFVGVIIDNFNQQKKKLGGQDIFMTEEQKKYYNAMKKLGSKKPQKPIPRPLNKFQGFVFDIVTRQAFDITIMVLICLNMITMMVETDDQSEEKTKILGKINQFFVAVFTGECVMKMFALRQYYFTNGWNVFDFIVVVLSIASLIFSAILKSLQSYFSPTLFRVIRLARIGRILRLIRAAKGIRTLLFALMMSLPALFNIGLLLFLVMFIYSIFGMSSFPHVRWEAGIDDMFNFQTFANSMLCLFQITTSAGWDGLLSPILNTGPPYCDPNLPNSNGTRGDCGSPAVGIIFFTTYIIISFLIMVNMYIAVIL
IC50 reference

These recorded examples may help you get a feel for the data.
{"compound": "C[C@H]1[C@@H](c2ccc(F)c(F)c2OCCO)[C@H](C(=O)Nc2ccc(C(F)F)nc2)O[C@@]1(C)C(F)(F)F", "target": "human NaV 1.8 (Homo sapiens, UniProt Q9Y5Y9)", "IC50": "10 to 100 nM"}
{"compound": "C[C@H]1[C@@H](c2ccc(F)c(F)c2OCC2COC2)[C@H](C(=O)Nc2ccc(C(N)=O)nc2)O[C@@]1(C)C(F)(F)F", "target": "human NaV 1.8 (Homo sapiens, UniProt Q9Y5Y9)", "IC50": "< 10 nM"}
{"compound": "CNC(=O)c1ccc(NC(=O)[C@H]2O[C@](C)(C(F)(F)F)[C@H](C)[C@@H]2c2ccc(F)c(C(F)F)c2OC)cn1 (stereo in doubt)", "target": "human NaV 1.8 (Homo sapiens, UniProt Q9Y5Y9)", "IC50": "10 to 100 nM"}
{"compound": "COc1c([C@H]2[C@H](C(=O)Nc3ccnc(N4CCN(C)CC4=O)c3)O[C@@](C)(C(F)(F)F)[C@H]2C)ccc(F)c1F", "target": "human NaV 1.8 (Homo sapiens, UniProt Q9Y5Y9)", "IC50": "< 10 nM"}

input: # get_value(readout='IC50', item= C=C(CO)COc1c([C@H]2[C@H](C(=O)Nc3cn(C(F)F)nc3C)O[C@@](C)(C(F)(F)F)[C@H]2C)ccc(F)c1F )
output: < 10 nM

input: # get_value(readout='IC50', item= COc1c([C@H]2[C@H](C(=O)Nc3ccc4nc(CO)cn4c3)O[C@@](C)(C(F)(F)F)[C@H]2C)ccc(F)c1F )
output: 10 to 100 nM

----------
target: human NaV 1.8 (Homo sapiens, UniProt Q9Y5Y9); experiment: E-VIPR assay detecting and measuring NaV inhibition properties; format: cell-based; details: HEK cells expressing truncated human NaV 1.8; no human serum; read-out: IC50 in the E-VIPR Assay
experimental_readout: IC50

{"compound": "COCCn1ccc(NC(=O)[C@@H]2O[C@@](C)(C(F)(F)F)[C@@H](C)[C@H]2c2ccc(F)c(F)c2OCCO)n1 [Compound 552]", "IC50": "≥ 1000 nM"}
{"compound": "COc1c([C@H]2[C@H](C(=O)Nc3ccnc(C(O)CF)c3)O[C@@](C)(C(F)(F)F)[C@H]2C)ccc(F)c1F (single isomer, unassigned) [Compound 253]", "IC50": "< 10 nM"}

Now look at this entry.
input: # get_value(readout='IC50', item= C[C@@H]1[C@H](c2ccc(F)c(F)c2OC(F)F)[C@@H](C(=O)Nc2ccc(CC(C)(C)O)nc2)O[C@]1(C)C(F)(F)F (single isomer, unassigned) [Compound 461] )
output: ≥ 1000 nM

----------
molecular target: human NaV 1.8 (Homo sapiens); assay: E-VIPR assay detecting and measuring NaV inhibition properties; format: cell-based; settings: HEK cells expressing truncated human NaV 1.8; no human serum; read-out: IC50 in the E-VIPR Assay
experimental_readout: IC50

input: # get_value(readout='IC50', item= COc1c([C@H]2[C@H](C(=O)Nc3cc(C4(N)CCOC4)ncc3F)O[C@@](C)(C(F)(F)F)[C@H]2C)ccc(F)c1F (single isomer, unassigned) [Compound 348] )
output: 10 to 100 nM

input: # get_value(readout='IC50', item= COC[C@@H](O)Cn1cc(NC(=O)[C@@H]2O[C@@](C)(C(F)(F)F)[C@@H](C)[C@H]2c2ccc(F)c(F)c2OC)c(C)n1 )
output: 10 to 100 nM

input: # get_value(readout='IC50', item= Cc1c(F)ccc(C2C(C(=O)Nc3ccnc(S(C)(=O)=O)c3)OC(C)(C(F)(F)F)C2C)c1OC(F)F (stereo not drawn) )
output: < 10 nM

input: # get_value(readout='IC50', item= COc1c(C2C(C(=O)Nc3cccc(P(C)(C)=O)c3)OC(C)(C(F)(F)F)C2C)ccc(F)c1F (single isomer, unassigned) [Compound 42] )
output: < 10 nM

input: # get_value(readout='IC50', item= CC1C(c2ccc(F)c(F)c2OCCO)C(C(=O)Nc2ncn(C3CC(F)C3)n2)OC1(C)C(F)(F)F (stereo not drawn) )
output: ≥ 1000 nM

input: # get_value(readout='IC50', item= COc1c(C2C(C(=O)Nc3ccn(C)c(=O)c3)OC(C)(C(F)(F)F)C2C)ccc(F)c1F (single isomer, unassigned) )
output: < 10 nM

----------
biological target: human NaV 1.8 (Homo sapiens); test: E-VIPR assay detecting and measuring NaV inhibition properties; type: cell-based; conditions: HEK cells expressing truncated human NaV 1.8; no human serum; read-out: IC50 in the E-VIPR Assay
pIC50: −log10 of the molar value.
experimental_readout: pIC50

These recorded examples may help you get a feel for the data.
{"compound": "COc1c([C@H]2[C@H](C(=O)Nc3ccnc(N4C(=O)CN(C)C[C@H]4C)c3)O[C@@](C)(C(F)(F)F)[C@H]2C)ccc(F)c1F [Compound 465]", "pIC50": "> 8.00"}
{"compound": "CCOc1c([C@H]2[C@H](C(=O)Nc3ccnc(S(C)(=N)=O)c3)O[C@@](C)(C(F)(F)F)[C@H]2C)ccc(F)c1F (single isomer, unassigned) [Compound 111]", "pIC50": "> 8.00"}
{"compound": "C[C@H]1[C@@H](c2ccc(F)c(F)c2O[C@H]2C[C@@H](O)C2)[C@H](C(=O)Nc2ccc(C(N)=O)nc2)O[C@@]1(C)C(F)(F)F [Compound 655]", "pIC50": "7.00 to 8.00"}

input: # get_value(readout='pIC50', item= COc1c([C@@H]2[C@@H](C(=O)Nc3cnc(C(N)=O)nc3)O[C@](C)(C(F)(F)F)[C@@H]2C)ccc(F)c1C(F)F (stereo in doubt) [Compound 172] )
output: ≤ 6.00

input: # get_value(readout='pIC50', item= COc1c([C@H]2[C@H](C(=O)Nc3ccnc(N4C[C@H](C)N(C)CC4=O)c3)O[C@@](C)(C(F)(F)F)[C@H]2C)ccc(F)c1F [Compound 474] )
output: > 8.00

input: # get_value(readout='pIC50', item= COCCCOc1c([C@H]2[C@H](C(=O)Nc3ccnc(CO)c3)O[C@@](C)(C(F)(F)F)[C@H]2C)ccc(F)c1F [Compound 642] )
output: > 8.00

Source: patent US20240368135A1
